Each entry below carries its reported growth.
# System: CCRF-CEM leukemia
# Assay Info: NCI-60 one-dose screen, 48 h (100 = growth as untreated, 0 = no growth, -100 = all killed)
# Test Parameters: 10 µM unless noted
About 83,000 compounds went through this panel and 20% of them were active in at least one assay; those are over-represented in the sample as a whole. The source made the active and inactive calls. Rule for the calls: active = growth percent below 10; inactive = the rest.

[
  {
    "Compound": "COc1ccc(-n2ncc3c2ccc2cc(S(=O)(=O)c4ccccc4)c(=O)n(C)c23)cc1",
    "growth": "96.6% (inactive)"
  },
  {
    "Compound": "O=C(NCc1cccnc1)c1ccc([N+](=O)[O-])o1",
    "growth": "54.4% (inactive)"
  },
  {
    "Compound": "CCCCC(O)Cn1ncc(C(=O)OCC)c1NC(=O)NCc1ccccc1C(F)(F)F (stereo not given)",
    "growth": "104% (inactive)"
  },
  {
    "Compound": "O=c1[nH]c(-c2ccncc2)nc2sc3c(c12)CCCCCC3",
    "growth": "98.1% (inactive)"
  },
  {
    "Compound": "COc1cc(-c2ccc3cc(OC)c(OC)c(OC)c3c2)cc(OC)c1OC",
    "growth": "55.2% (inactive)"
  }
]

----------
# Tested on: KM12 colon
# Assay Info: NCI-60 one-dose screen, 48 h (100 = growth as untreated, 0 = no growth, -100 = all killed)
# Test Parameters: 10 µM unless noted
About 83,000 compounds went through this panel and 20% of them were active in at least one assay; those are over-represented in the sample as a whole.

[
  {
    "Compound": "O=C(Nc1nc2ccccc2[nH]1)C(=O)Nc1nc2ccccc2[nH]1",
    "growth (%)": 101
  },
  {
    "Compound": "O=C(O)CCN1CCN(c2cccc(Cl)c2)CC1",
    "growth (%)": 114
  },
  {
    "Compound": "CN1CCc2c(Sc3ccc(C(=O)NO)cc3)c3ccccc3n2C1",
    "growth (%)": 53.9
  },
  {
    "Compound": "CCC(C)Oc1cc(/C=N/NC(=O)c2cnn3c2NC(c2ccccc2)C3)ccc1OC (stereo unspecified)",
    "growth (%)": 20.2
  },
  {
    "Compound": "CC(C)(C)CC(C)(C)N(CSc1ccc(Cl)cc1)CSc1ccc(Cl)cc1",
    "growth (%)": 33.5
  },
  {
    "Compound": "Cn1c2ccccc2c2nn(C(=O)c3ccccc3)c(=O)nc21",
    "growth (%)": 106
  },
  {
    "Compound": "Nc1ccccc1-c1n[nH]c(=O)[nH]c1=O",
    "growth (%)": 107
  },
  {
    "Compound": "CCN(CC)CCCNc1ccc(C)c2sc3ccccc3c(=O)c12",
    "growth (%)": 33.2
  },
  {
    "Compound": "CCCCCCCC/C=C\\CCCCCCCCOc1cccc(CC(=O)NCC[N+]2(C)CCCC2)c1",
    "growth (%)": 69.2
  },
  {
    "Compound": "COC(=O)[C@@H]1CCCN1C(=O)[C@@H]1CCCN1C(=O)[C@@H](Cc1c[nH]c2ccccc12)NC(=S)Nc1cc(C(F)(F)F)cc(C(F)(F)F)c1",
    "growth (%)": 66.2
  },
  {
    "Compound": "O=c1oc2ccccc2cc1-c1csc(N/N=C/c2cc3ccccc3nc2Cl)n1",
    "growth (%)": 100
  },
  {
    "Compound": "NC(=O)c1cccc(-n2ccc3cc(NC(=O)Nc4ccc(Cl)c(Cl)c4)ccc32)n1",
    "growth (%)": 55.5
  },
  {
    "Compound": "O=[N+]([O-])c1ccc2nc(N/N=C/c3ccc(O)cc3)sc2c1",
    "growth (%)": 33.4
  },
  {
    "Compound": "CCCOC(=O)c1ccc2c(c1)[N+](=O)C(C(=O)c1ccccc1)=C(C(F)(F)F)[N+]2=O",
    "growth (%)": -81.6
  },
  {
    "Compound": "O=c1nc(NO)[nH]c(=O)n1Cc1ccc(F)cc1",
    "growth (%)": 109
  },
  {
    "Compound": "ONc1nc(NO)c2[nH]cnc2n1",
    "growth (%)": 110
  },
  {
    "Compound": "Cc1nn(CC(=O)O)c2c1C(=O)CC(C)(C)C2",
    "growth (%)": 109
  },
  {
    "Compound": "Cc1ccc(-c2nnc(COc3ccc(-c4nnc(N)s4)cc3)o2)cc1",
    "growth (%)": 92.6
  },
  {
    "Compound": "O=C1CCC(N2Cc3c(C#CCCCNC(=O)c4cc5c(o4)C(=O)c4ccccc4C5=O)cccc3C2=O)C(=O)N1 (stereo unspecified)",
    "growth (%)": -1.98
  },
  {
    "Compound": "O=c1oc2ccccc2cc1-c1csc(N=Nc2c(O)[nH]c3ccc(Cl)cc23)n1",
    "growth (%)": 108
  },
  {
    "Compound": "COc1ccccc1CNCCCCCCCCCCCCN1C(=O)c2ccc3c4c(ccc(c24)C1=O)C(=O)N(CCCCCCCCCCCCNCc1ccccc1OC)C3=O",
    "growth (%)": 46.6
  }
]

----------
# Tested on: RPMI-8226 leukemia
# Assay Info: NCI-60 one-dose screen, 48 h (100 = growth as untreated, 0 = no growth, -100 = all killed)
# Test Parameters: 10 µM
About 83,000 compounds went through this panel and 20% of them were active in at least one assay; those are over-represented in the sample as a whole.
Each entry below carries its reported growth.

[
  {
    "Molecule": "O=c1oc2ccccc2cc1-c1csc(N=Nc2c(O)[nH]c3ccc(Cl)cc23)n1",
    "growth [%]": 105
  },
  {
    "Molecule": "Cc1ccc2nc(NC(=O)CSC(=S)N3CCN(Cc4ccccc4)CC3)sc2c1",
    "growth [%]": 8.2
  },
  {
    "Molecule": "CN(C)C(=S)SCN1C(=O)c2ccc([N+](=O)[O-])cc2S1(=O)=O",
    "growth [%]": 116
  },
  {
    "Molecule": "CSC1=CC(=O)c2ccccc2C1=O",
    "growth [%]": 44
  },
  {
    "Molecule": "COC(=O)c1c2c(c(C)[n+]([O-])c1C)C(=O)C=C(NCc1cccc(OC)c1)C2=O",
    "growth [%]": -35.5
  },
  {
    "Molecule": "O=C1c2[nH]cc(CN[C@@H]3CCCN3)c2C(=O)c2c1c(O)c1ccccc1c2O",
    "growth [%]": -55.5
  },
  {
    "Molecule": "COc1ccc(OC2=C(C#N)C(=N)N3c4ccccc4Sc4ccccc4C3N2)cc1 (stereo not given)",
    "growth [%]": 88
  },
  {
    "Molecule": "O=C1NC(=O)C(CSc2ccccc2)(c2ccccc2)N1 (stereo not given)",
    "growth [%]": 100
  },
  {
    "Molecule": "COc1cccc2c(=O)c3c(sc12)c(NCCN(C)C)nc1ccccc13",
    "growth [%]": -20.1
  },
  {
    "Molecule": "O=C(Nc1ccc(F)cc1)c1ccc(C(=O)Nc2ccc(F)cc2)cc1",
    "growth [%]": 113
  }
]

----------
Each entry below carries its reported growth.
# Tested on: SK-OV-3 ovarian
# Assay Info: NCI-60 one-dose screen, 48 h (100 = growth as untreated, 0 = no growth, -100 = all killed)
# Test Parameters: 10 µM
The panel holds about 83,000 compounds, 20% with a hit somewhere; the sample as a whole holds those more often. Calls of active or inactive are those of the source. Rule for the calls: active = growth percent below 10; inactive = the rest.
Quantity: growth

[
  {
    "Molecule": "O=C(COc1cccc(/C=C2\\COc3ccccc3C2=O)c1)c1ccccc1",
    "Recorded Measurement": "98.7% (inactive)"
  },
  {
    "Molecule": "COc1ccc(-n2ncc3c2ccc2cc(S(=O)(=O)c4ccccc4)c(=O)n(C)c23)cc1",
    "Recorded Measurement": "83.5% (inactive)"
  },
  {
    "Molecule": "COc1ccc(-n2ncc3c4nc(OC)c(S(=O)(=O)c5ccccc5)cc4ccc32)cc1",
    "Recorded Measurement": "55.8% (inactive)"
  },
  {
    "Molecule": "Nc1cc(Br)c(-c2nnc(CCC(=O)c3nc4ccccc4[nH]3)o2)c(Br)c1",
    "Recorded Measurement": "81.8% (inactive)"
  },
  {
    "Molecule": "CC(C)OC1=C(Cl)C(=O)c2ccccc2C1=O",
    "Recorded Measurement": "103% (inactive)"
  },
  {
    "Molecule": "O=S(=O)(/N=C1C=C/C(=N\\S(=O)(=O)c2ccccc2)c2ccccc2\\1)c1ccccc1",
    "Recorded Measurement": "104% (inactive)"
  },
  {
    "Molecule": "CC(C)NCC(O)COc1ccc(CCOCC2CC2)cc1 (configuration not stated)",
    "Recorded Measurement": "113% (inactive)"
  },
  {
    "Molecule": "O=C(NCc1cccnc1)c1ccc([N+](=O)[O-])o1",
    "Recorded Measurement": "32.3% (inactive)"
  },
  {
    "Molecule": "N#CCCN1CCN(CCC#N)C1=S",
    "Recorded Measurement": "108% (inactive)"
  },
  {
    "Molecule": "Cc1nc2cc(Nc3nc(N4CCOCC4)nc(N4CCN(C)CC4)n3)ccc2n1Cc1ccccc1",
    "Recorded Measurement": "103% (inactive)"
  },
  {
    "Molecule": "O=C1/C(=C/c2ccc(Cl)cc2)CN(Cc2cn(CCCNc3ccnc4cc(Cl)ccc34)nn2)C/C1=C\\c1ccc(Cl)cc1",
    "Recorded Measurement": "-48.5% (active)"
  },
  {
    "Molecule": "COc1cccc(OC)c1OC(=O)c1ccccc1",
    "Recorded Measurement": "106% (inactive)"
  },
  {
    "Molecule": "O=C(Nc1nc2ccccc2[nH]1)C(=O)Nc1nc2ccccc2[nH]1",
    "Recorded Measurement": "108% (inactive)"
  },
  {
    "Molecule": "CCCCc1ccc(C(O)(CCN2CC3CCC(CC3)C2)c2ccccc2)cc1 (configuration not stated)",
    "Recorded Measurement": "91.2% (inactive)"
  },
  {
    "Molecule": "Nc1nc(N)c(C=Nc2ccc(Br)cc2)c(Nc2ccc(Br)cc2)n1",
    "Recorded Measurement": "104% (inactive)"
  },
  {
    "Molecule": "C[C@@H](Oc1cc(-c2cnn(C3CC4(CNC4)C3)c2)cnc1N)c1c(Cl)ccc(F)c1Cl",
    "Recorded Measurement": "66.3% (inactive)"
  },
  {
    "Molecule": "O=C1OCC2=C1C(c1ccc3c(c1)OCO3)CC(=O)N2c1cccc(Cl)c1 (configuration not stated)",
    "Recorded Measurement": "97.5% (inactive)"
  },
  {
    "Molecule": "Brc1ccccc1Nc1ccc2nnc(-c3ccncc3)n2n1",
    "Recorded Measurement": "102% (inactive)"
  },
  {
    "Molecule": "Clc1ccc(Nc2ccnc(N3CCN(c4ccnc5cc(Cl)ccc45)CC3)n2)cc1",
    "Recorded Measurement": "62.5% (inactive)"
  },
  {
    "Molecule": "FC(F)(F)c1ccc2c(c1)n1cnnc1c1nncn21",
    "Recorded Measurement": "109% (inactive)"
  },
  {
    "Molecule": "COc1cc2nc(SCc3cc(OC)c(OC)c(OC)c3)n(-c3ccccc3OC)c(=O)c2cc1OC",
    "Recorded Measurement": "98.2% (inactive)"
  },
  {
    "Molecule": "COc1cccc(C2C3=C(COC3=O)N(CCO)c3cc4c(cc32)CCC4)c1 (configuration not stated)",
    "Recorded Measurement": "20.9% (inactive)"
  }
]

Hello, the source for this data is PubChem BioAssay (NCI), in case you need it.
